- System: Mycosphaerella arachidis
- runDescription: Fungicidal activity against Mycosphaerella arachidis assessed as mycelium growth inhibition at 10 ug/mL by mycelium growth rate method
- Format: functional
- conditionContext: read-out: GI

{"smi": "O=[N+]([O-])c1cc(F)c(Cl)cc1-c1ccsc1", "inhibition of growth at 10 µg/mL [%]": 0}
{"smi": "O=[N+]([O-])c1cc(F)ccc1-c1ccsc1", "inhibition of growth at 10 µg/mL [%]": 0}
{"smi": "O=[N+]([O-])c1ccc(F)cc1-c1ccsc1", "inhibition of growth at 10 µg/mL [%]": 0}
{"smi": "O=[N+]([O-])c1ccc(F)cc1-c1ccsc1[N+](=O)[O-]", "inhibition of growth at 10 µg/mL [%]": 0}
{"smi": "O=[N+]([O-])c1cc(-c2ccc(Cl)cc2[N+](=O)[O-])cs1", "inhibition of growth at 10 µg/mL [%]": 0}
{"smi": "O=[N+]([O-])c1cc(-c2c(Cl)cc(Cl)cc2[N+](=O)[O-])cs1", "inhibition of growth at 10 µg/mL [%]": 5}
{"smi": "O=[N+]([O-])c1cc(Cl)cc(Cl)c1-c1ccsc1[N+](=O)[O-]", "inhibition of growth at 10 µg/mL [%]": 0}
{"smi": "O=[N+]([O-])c1cc(-c2ccc(F)cc2[N+](=O)[O-])cs1", "inhibition of growth at 10 µg/mL [%]": 11}
{"smi": "O=[N+]([O-])c1cc(F)c(Cl)cc1-c1ccsc1[N+](=O)[O-]", "inhibition of growth at 10 µg/mL [%]": 0}

Data provenance is ChEMBL document CHEMBL3045952.
